target_system: Cytochrome P450 2C19 (Homo sapiens)
measurement_notes: Cytochrome panel assay with activity outcomes
stated_conditions: recombinant CYP, pro-luciferin dealkylation, luminescence, p450-cyp2c19; series mostly up to 57.1 µM
Screen size: about 16,000 compounds; about 5,800 (36%) were called active. About 23% were inconclusive and are not listed. Calls follow the shape of the dose curve; as a rule, active = well fitted curve in the direction sought with a large enough effect; inconclusive = small, poorly fitted or top-dose-only effect, or effect the other way; inactive = no such curve, though single readings can be large or run the other way. The list shows a part of the results.
Outcomes: t = active, f = inactive

compound: CN(C(=O)Cc1ccc(Cl)c(Cl)c1)[C@H](CN1CCCC1)c1ccccc1
target_system: Cytochrome P450 2C19 (Homo sapiens)
label_value: t
//
compound: c1ccc(N2CC[C@@]3(CCCNC3)C2)cc1
target_system: Cytochrome P450 2C19 (Homo sapiens)
label_value: f
//
compound: C=CCN1C(=O)NC(=O)/C(=C/c2cccn2C)C1=O
target_system: Cytochrome P450 2C19 (Homo sapiens)
label_value: f
//
compound: COc1ccc(C(=O)NC2CC3CCCC(C2)N3CC(C)C)cc1OC (configuration not stated)
target_system: Cytochrome P450 2C19 (Homo sapiens)
label_value: f
//
compound: CC(C)NC(=O)N1CCC2(CC1)CCN(C(=O)Oc1ccccc1)CC2
target_system: Cytochrome P450 2C19 (Homo sapiens)
label_value: f
//
compound: CCCCn1c(N)c(C(=O)NCc2cccs2)c2nc3ccccc3nc21
target_system: Cytochrome P450 2C19 (Homo sapiens)
label_value: t
//
compound: Cc1ncsc1CCCl
target_system: Cytochrome P450 2C19 (Homo sapiens)
label_value: t
//
compound: CCCCN1C(=O)C(C2c3ccccc3C(=O)N2Cc2ccccc2)C(=O)NC1=S (configuration not stated)
target_system: Cytochrome P450 2C19 (Homo sapiens)
label_value: t
//
compound: CC[C@@H]1CN2CCc3cc(OC)c(OC)cc3[C@H]2C[C@@H]1C[C@@H]1NCCc2cc(O)c(OC)cc21
target_system: Cytochrome P450 2C19 (Homo sapiens)
label_value: f
//
compound: CN(C(=O)Cc1ccc(Cl)c(Cl)c1)[C@@H](CN1CCCC1)c1cccc(OCC(=O)O)c1
target_system: Cytochrome P450 2C19 (Homo sapiens)
label_value: f
//
compound: O=C(Oc1ccccc1)N1CCC2(CCCN(C(c3ccccc3)c3ccccc3)C2)CC1
target_system: Cytochrome P450 2C19 (Homo sapiens)
label_value: f
//
compound: COC(=O)[C@@]1(Cc2ccc(F)cc2)[C@H]2c3cc(C(=O)N(C)C)[nH]c3C[C@H]2CN1C(=O)c1ccccc1
target_system: Cytochrome P450 2C19 (Homo sapiens)
label_value: t
//
compound: N#CCCN
target_system: Cytochrome P450 2C19 (Homo sapiens)
label_value: f
//
compound: O=C1CCCCCC1C1(O)C(=O)Nc2ccc(Br)cc21 (configuration not stated)
target_system: Cytochrome P450 2C19 (Homo sapiens)
label_value: t
//
compound: OC1(c2ccc(Cl)cc2)CCN(Cc2c[nH]c3ccccc23)CC1
target_system: Cytochrome P450 2C19 (Homo sapiens)
label_value: f
//
compound: Cn1cc(C(=O)C(=O)N[C@H]2CN3CCC2CC3)c2ccccc21
target_system: Cytochrome P450 2C19 (Homo sapiens)
label_value: f
//
compound: CC1=NCCc2c1[nH]c1cc(O)ccc21
target_system: Cytochrome P450 2C19 (Homo sapiens)
label_value: f
//
compound: CC(C)CN1CCC2(CC1)CCN(S(C)(=O)=O)CC2
target_system: Cytochrome P450 2C19 (Homo sapiens)
label_value: f
//
compound: CNCCCc1ccccc1
target_system: Cytochrome P450 2C19 (Homo sapiens)
label_value: f
//
compound: C[N+]1(C)[C@@H]2CC[C@H]1CC(OC(=O)c1c[nH]c3ccccc13)C2 (some centres not stated)
target_system: Cytochrome P450 2C19 (Homo sapiens)
label_value: f
//
compound: NC[C@H](CC(=O)O)c1ccc(Cl)cc1
target_system: Cytochrome P450 2C19 (Homo sapiens)
label_value: t
//
compound: COC(=O)c1[nH]c2ccc(Br)cc2c1NC(=O)Oc1ccccc1
target_system: Cytochrome P450 2C19 (Homo sapiens)
label_value: t
//
compound: S=P(C1CCCCC1)(C1CCCCC1)[C@H](c1cccnc1)N1CCCC1
target_system: Cytochrome P450 2C19 (Homo sapiens)
label_value: t
//
compound: CC(C)(C)NC[C@@H](O)COc1cccc2[nH]c(C#N)cc12
target_system: Cytochrome P450 2C19 (Homo sapiens)
label_value: t
//
compound: CC(C(=O)c1c[nH]c2ccccc12)N1CCSCC1 (configuration not stated)
target_system: Cytochrome P450 2C19 (Homo sapiens)
label_value: t
//
compound: C[C@H](N)[C@H](O)c1ccc(O)c(O)c1
target_system: Cytochrome P450 2C19 (Homo sapiens)
label_value: f
//
compound: O=C(Oc1ccccc1)N1CCC2(CCN(Cc3ccncc3)CC2)CC1
target_system: Cytochrome P450 2C19 (Homo sapiens)
label_value: f

====

target_system: Cytochrome P450 2C19 (Homo sapiens) (UniProt P33261)
Sequence (P33261 whole entry, looked up): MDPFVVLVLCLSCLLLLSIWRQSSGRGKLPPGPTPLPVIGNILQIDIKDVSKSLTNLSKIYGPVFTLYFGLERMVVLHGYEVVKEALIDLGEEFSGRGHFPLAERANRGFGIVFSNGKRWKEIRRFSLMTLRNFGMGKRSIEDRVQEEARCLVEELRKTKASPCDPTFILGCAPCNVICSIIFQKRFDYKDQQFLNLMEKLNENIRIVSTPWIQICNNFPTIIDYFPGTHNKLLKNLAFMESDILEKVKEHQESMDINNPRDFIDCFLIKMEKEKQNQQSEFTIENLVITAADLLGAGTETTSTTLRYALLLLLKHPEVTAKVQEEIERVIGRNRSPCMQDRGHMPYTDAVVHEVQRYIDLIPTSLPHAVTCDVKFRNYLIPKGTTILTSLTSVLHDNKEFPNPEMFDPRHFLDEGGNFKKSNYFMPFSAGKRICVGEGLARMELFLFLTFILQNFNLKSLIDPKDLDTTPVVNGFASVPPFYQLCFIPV
measurement_notes: Cytochrome panel assay with activity outcomes; as to activity, negative = inhibition: % is scaled to controls: 0 for no effect and ±100 for the full control effect
stated_conditions: recombinant CYP, pro-luciferin dealkylation, luminescence, p450-cyp2c19; series mostly up to 57.1 µM
The campaign covered roughly 16,000 compounds. About 5,800 (36%) were called active. Inconclusive results (about 23%) are left out. Some of the results follow.

compound: C[C@]12CC[C@@H]3[C@H](CCC4=CC(=O)CC[C@]43C)[C@]1(O)CC[C@@]2(O)C(=O)CO
activity, negative = inhibition: 24.8% [at 11.4 µM] (inactive)
//
compound: C[N+]1(C)C2CC[C@H]1CC(OC(=O)[C@@H](CO)c1ccccc1)C2 (stereo partly specified)
activity, negative = inhibition: 14.6% [at 11.4 µM] (inactive)
//
compound: O=P(O)(O)c1ccccc1 (tested in a mixture with another compound)
activity, negative = inhibition: 41.3% [at 11.4 µM] (inactive)
//
compound: CC(C)C(=O)CP(=O)(O)O
activity, negative = inhibition: 8.85% [at 11.4 µM] (inactive)
//
compound: C[C@@H]1CC[C@@H]2N(C1)C[C@H]1[C@@](O)([C@H](O)C[C@]3(O)[C@H]4CC[C@H]5[C@]6(O)O[C@]4(C[C@]13O)[C@@]5(C)CC[C@@H]6O)[C@@]2(C)O
activity, negative = inhibition: 1.59% [at 11.4 µM] (inactive)
//
compound: O=S(=O)(NCCO)c1cc[c]([Sb](=[O])([OH])[OH])cc1
activity, negative = inhibition: 14.4% [at 11.4 µM] (inactive)

====

target_system: Cytochrome P450 2C19 (Homo sapiens) (UniProt P33261)
measurement_notes: Cytochrome panel assay with activity outcomes
stated_conditions: recombinant CYP, pro-luciferin dealkylation, luminescence, p450-cyp2c19; series mostly up to 57.1 µM
The campaign covered roughly 16,000 compounds. About 5,800 (36%) were called active. Inconclusive results (about 23%) are left out. This is one part of the list.

molecule: C[N+]1(C)CCO[C@](O)(c2ccc(-c3ccc([C@]4(O)C[N+](C)(C)CCO4)cc3)cc2)C1
target_system: Cytochrome P450 2C19 (Homo sapiens) (UniProt P33261)
outcome: inactive

molecule: CCN1C[C@]2(C)CC[C@@H](O)[C@]34[C@@H]5CC6[C@@H](OC)C[C@@](O)([C@H]5[C@@H]6O)[C@@H](C[C@@H]23)[C@H]14
target_system: Cytochrome P450 2C19 (Homo sapiens) (UniProt P33261)
outcome: inactive

molecule: C=CCN1C[C@@H](C)N([C@H](c2ccc(C(=O)N(CC)CC)cc2)c2cccc(OC)c2)C[C@H]1C
target_system: Cytochrome P450 2C19 (Homo sapiens) (UniProt P33261)
outcome: inactive

molecule: COc1ccc2c(c1)C13CCCC[C@@H]1C(C2)N(C)CC3 (stereo not given in full)
target_system: Cytochrome P450 2C19 (Homo sapiens) (UniProt P33261)
outcome: inactive

molecule: CCCN1CCc2cc(O)cc3c2[C@H]1Cc1ccc(O)c(O)c1-3
target_system: Cytochrome P450 2C19 (Homo sapiens) (UniProt P33261)
outcome: inactive
